- system name: human interleukin 13 receptor alpha 1 (IL-13Rα1), biotinylated ectodomain (human) (UniProt P78552)
- assay name: SPR (Biacore T100), biotinylated receptor on SA chip, equilibrium KD
Below, each entry is listed alongside its reported Kd.
A complete answer gives the number followed by the unit.

Known results for binders:
C3 (ligand, also called IL-13 variant C3 (L10A, R86T, D87G, T88K, K89R, L101N, K104R, K105A, R108K)) cytokine: PGPVPPSTAARELIEELVNITQNQKAPLCNGSMVWSINLTAGMYCAALESLINVSGCSAIEKTQRMLSGFCPHKVSAGQFSSLHVTGKRIEVAQFVKDLLNHLRALFKEGQFN ... 16 µM
C2 (ligand, also called IL-13 variant C2 (L10D, R11I, V18I, R86K, D87K, K89R, R108K)) cytokine: PGPVPPSTADIELIEELINITQNQKAPLCNGSMVWSINLTAGMYCAALESLINVSGCSAIEKTQRMLSGFCPHKVSAGQFSSLHVKKTRIEVAQFVKDLLLHLKKLFKEGQFN ... 4 µM

Query binder follows.
Provide only the value of recorded Kd for C12 (ligand, also called IL-13 variant C12 (L10H, R86M, T88S, K89R, L101N, K104R, K105A, R108K)) cytokine: PGPVPPSTAHRELIEELVNITQNQKAPLCNGSMVWSINLTAGMYCAALESLINVSGCSAIEKTQRMLSGFCPHKVSAGQFSSLHVMDSRIEVAQFVKDLLNHLRALFKEGQFN
15 µM
